target: human TLR8 (Homo sapiens, UniProt Q9NR97); experiment: TLR8 inhibition reporter assay (HEK-Blue SEAP reporter, R848 stimulation); settings: HEK-Blue cells overexpressing human TLR8, SEAP reporter, R848 15.9 μM, 22 hour incubation
Sequence (Q9NR97 27-1041): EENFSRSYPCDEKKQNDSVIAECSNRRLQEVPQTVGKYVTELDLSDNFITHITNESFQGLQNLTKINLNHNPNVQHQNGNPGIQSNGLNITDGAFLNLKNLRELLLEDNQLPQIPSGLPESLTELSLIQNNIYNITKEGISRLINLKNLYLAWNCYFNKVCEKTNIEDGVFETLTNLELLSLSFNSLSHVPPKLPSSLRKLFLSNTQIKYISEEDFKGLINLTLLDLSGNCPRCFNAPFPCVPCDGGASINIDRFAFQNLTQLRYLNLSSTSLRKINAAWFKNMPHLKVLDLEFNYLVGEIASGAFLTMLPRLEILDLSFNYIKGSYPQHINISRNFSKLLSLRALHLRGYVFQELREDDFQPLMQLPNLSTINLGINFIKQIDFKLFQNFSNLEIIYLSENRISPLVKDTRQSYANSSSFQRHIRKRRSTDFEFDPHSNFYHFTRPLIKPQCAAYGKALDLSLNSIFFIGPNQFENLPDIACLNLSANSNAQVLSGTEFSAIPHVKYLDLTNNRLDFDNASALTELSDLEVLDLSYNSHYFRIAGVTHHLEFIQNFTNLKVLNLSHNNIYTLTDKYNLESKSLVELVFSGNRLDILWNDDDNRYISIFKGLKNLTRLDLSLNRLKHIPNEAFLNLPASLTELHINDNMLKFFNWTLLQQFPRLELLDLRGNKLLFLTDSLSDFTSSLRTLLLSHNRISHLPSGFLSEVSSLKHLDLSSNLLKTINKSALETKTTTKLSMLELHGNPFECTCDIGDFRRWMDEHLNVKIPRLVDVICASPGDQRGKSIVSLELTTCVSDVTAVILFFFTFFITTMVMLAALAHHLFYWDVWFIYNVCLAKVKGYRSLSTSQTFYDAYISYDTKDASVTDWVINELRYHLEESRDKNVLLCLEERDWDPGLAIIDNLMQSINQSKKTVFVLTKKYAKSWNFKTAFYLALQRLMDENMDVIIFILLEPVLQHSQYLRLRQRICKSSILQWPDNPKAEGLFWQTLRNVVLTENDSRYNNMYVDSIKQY
For each record, write down the corresponding IC50.
Answers are plain numbers, in µM.

Some molecules with recorded IC50:
Cc1cc(-c2[nH]c3ccc(C4CCN(C5CCOCC5)CC4)cc3c2C(C)C)nn(C)c1=O: 0.0063
CNCCN1CCC(c2ccc3[nH]c(-c4ccc(=O)n(C)c4)c(C(C)C)c3c2)CC1: 0.0069
Cc1cc(-c2[nH]c3ccc(C4CCN(C(C)C)CC4)cc3c2C(C)C)nn(C)c1=O: 0.012
Cc1cc(-c2[nH]c3ccc(C4CCN(C(C)(C)C(N)=O)CC4)cc3c2C(C)C)cn(C)c1=O: 0.0137

Turning now to a further record.
stdin: Query: IC50; subject: "CC(C)c1c(-c2cc(-c3ccc(F)nc3)c(=O)n(C)c2)[nH]c2ccc(C3CCN(C(C)C)CC3)cc12"
stdout: 0.016

---

For each record, write down the corresponding pIC50.
molecular target: human TLR7 (Homo sapiens); assay: TLR7 inhibition reporter assay (HEK-Blue SEAP reporter, gardiquimod stimulation); conditions: HEK-Blue cells overexpressing human TLR7, SEAP reporter, gardiquimod 7.5 μM, 22 hour incubation
Give bare numbers, as −log10 of the molar value.

Quick batch: pIC50 for everything below.
1. Cc1cc(-c2[nH]c3ccc(C4CCN(CC(C)(C)O)CC4)cc3c2C(C)C)cn(Cc2ccccc2)c1=O
2. Cc1cc(-c2[nH]c3ccc(C4CCN(C(=O)CN(C)C)CC4)cc3c2C(C)C)cn(CC(C)C)c1=O
3. CCc1c(-c2cn(C)c(=O)c(Cl)c2C)[nH]c2ccc(C3CCN(CC(=O)N(C)C)CC3)cc12
4. Cc1cc(-c2[nH]c3ccc(C4CCN(CC5(O)CCOCC5)CC4)cc3c2C(C)C)c(C)n(C)c1=O
5. Cc1c(-c2[nH]c3ccc(C4CCNCC4)cc3c2C(C)C)ccc(=O)n1C

stdout:
1: 7.80; 2: 7.84; 3: 7.89; 4: 7.85; 5: 7.89

---

For each record, write down the corresponding pIC50.
target: human TLR8 (Homo sapiens, UniProt Q9NR97); construct: host or cells: HEK-Blue cells; assay: TLR8 inhibition reporter assay (HEK-Blue SEAP reporter, R848 stimulation); type: cell-based; details: HEK-Blue cells overexpressing human TLR8, SEAP reporter, R848 15.9 μM, 22 hour incubation
Answers are plain numbers, as −log10 of the molar value.

Some compounds with recorded pIC50:
COc1cc(-c2[nH]c3ccc(C4CCNCC4)cc3c2C(C)C)c(C)n(C)c1=O [Example 28]: 6.76
Cc1cc(-c2[nH]c3ccc(C4CCN(C(=O)[C@H]5NCC[C@@H]5O)CC4)cc3c2C(C)C)cn(C)c1=O [Example 291]: 7.95
CCCN1CCC(c2ccc3[nH]c(-c4cn(C)c(=O)c(Cl)c4C)c(C(C)C)c3c2)CC1 [Example 242]: 8.29
CC(C)c1c(-c2ccc(=O)n(CC(N)=O)c2)[nH]c2ccc(C3CCNCC3)cc12 [Example 49]: 5.68
Cc1c(-c2[nH]c3ccc(C4CCN(C5CCOCC5)CC4)cc3c2C(C)C)cn(C)c(=O)c1C#N [Example 222]: 9.05

Quick batch: pIC50 for everything below.
1. CC(C)c1c(-c2cc(-c3cncnc3)c(=O)n(C)c2)[nH]c2ccc(C3CCN(CCCC(F)(F)F)CC3)cc12 [Example 104]
2. CC(C)c1c(-c2cc(-c3cncnc3)c(=O)n(C)c2)[nH]c2ccc(C3CCN(CC(C)(C)O)CC3)cc12 [Example 326]

stdout:
[8.46, 9.22]

---

Target: human TLR7 (Homo sapiens)
Sequence (Q9NYK1 27-1049): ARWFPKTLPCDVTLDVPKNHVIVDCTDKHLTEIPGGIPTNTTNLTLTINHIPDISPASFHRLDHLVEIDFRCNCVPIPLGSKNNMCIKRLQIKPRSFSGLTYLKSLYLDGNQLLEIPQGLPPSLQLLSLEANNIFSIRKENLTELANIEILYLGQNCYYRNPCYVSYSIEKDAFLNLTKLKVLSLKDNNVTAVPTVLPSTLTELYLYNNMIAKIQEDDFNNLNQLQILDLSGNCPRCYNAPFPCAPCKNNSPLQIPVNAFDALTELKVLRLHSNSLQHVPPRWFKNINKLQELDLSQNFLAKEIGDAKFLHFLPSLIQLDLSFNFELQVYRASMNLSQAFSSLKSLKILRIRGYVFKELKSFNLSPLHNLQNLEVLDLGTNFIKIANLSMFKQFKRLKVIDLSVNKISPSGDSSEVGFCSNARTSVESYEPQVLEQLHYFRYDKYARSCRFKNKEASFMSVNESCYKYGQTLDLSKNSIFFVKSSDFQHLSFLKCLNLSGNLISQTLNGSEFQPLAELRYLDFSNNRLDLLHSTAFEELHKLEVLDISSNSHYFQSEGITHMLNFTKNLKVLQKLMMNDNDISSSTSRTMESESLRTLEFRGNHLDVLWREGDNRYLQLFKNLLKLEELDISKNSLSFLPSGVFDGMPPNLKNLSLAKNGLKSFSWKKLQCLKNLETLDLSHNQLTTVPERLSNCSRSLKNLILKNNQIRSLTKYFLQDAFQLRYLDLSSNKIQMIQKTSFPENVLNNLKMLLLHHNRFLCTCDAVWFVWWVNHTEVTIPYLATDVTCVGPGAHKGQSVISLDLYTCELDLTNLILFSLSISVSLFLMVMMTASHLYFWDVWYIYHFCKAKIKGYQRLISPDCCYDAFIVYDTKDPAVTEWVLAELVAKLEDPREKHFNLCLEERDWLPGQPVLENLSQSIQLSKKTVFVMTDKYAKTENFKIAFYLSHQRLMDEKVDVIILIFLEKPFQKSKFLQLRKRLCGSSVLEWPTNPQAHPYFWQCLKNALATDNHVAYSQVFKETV
Test: TLR7 inhibition reporter assay (HEK-Blue SEAP reporter, gardiquimod stimulation)
Details: HEK-Blue cells overexpressing human TLR7, SEAP reporter, gardiquimod 7.5 μM, 22 hour incubation
For each record, write down the corresponding pIC50.
Give bare numbers, as −log10 of the molar value.

Cc1cc(-c2[nH]c3ccc(C4CCN(C(=O)[C@H]5NCC[C@@H]5O)CC4)cc3c2C(C)C)cn(C)c1=O: 7.91

Quick batch: pIC50 for everything below.
1. Cc1ncccc1-c1cc(-c2[nH]c3ccc(C4CCN(C(C)C)CC4)cc3c2C(C)C)cn(C)c1=O
2. Cc1cc(-c2[nH]c3ccc(C4CCN(C(=O)C[C@H](C)O)CC4)cc3c2C(C)C)cn(C)c1=O

stdout:
7.94
7.96

---

For each record, write down the corresponding pIC50.
target: human TLR8 (Homo sapiens, UniProt Q9NR97); test: TLR8 inhibition reporter assay (HEK-Blue SEAP reporter, R848 stimulation); details: HEK-Blue cells overexpressing human TLR8, SEAP reporter, R848 15.9 μM, 22 hour incubation
One number for each entry, as −log10 of the molar value.

Some molecules with recorded pIC50:
Cc1nc(-c2[nH]c3ccc(C4CCN(CC(=O)N(C)C)CC4)cc3c2C(C)C)cn(C)c1=O [Example 115]: 7.38
COc1cc(-c2[nH]c3ccc(C4CCN(CC(=O)N(C)C)CC4)cc3c2C(C)C)cn(C)c1=O [Example 128]: 8.24
Cc1cc(-c2[nH]c3ccc(C4CCN(C(=O)C(C)(C)N)CC4)cc3c2C(C)C)cn(C)c1=O [Example 296]: 8.52

Quick batch: pIC50 for everything below.
1. CNCCN1CCC(c2ccc3[nH]c(-c4cc(C)c(=O)n(C)c4)c(C(C)C)c3c2)CC1 [Example 176]
2. CC(C)c1c(-c2cc(-c3ccccc3)c(=O)n(C)c2)[nH]c2ccc(C3CCNCC3)cc12 [Example 53]

stdout:
8.89
7.99

Quick batch: pIC50 for everything below.
1. Cc1cc(-c2[nH]c3ccc(C4CCN(C(C)C)CC4)cc3c2C(C)C)c(C)n(C)c1=O [Example 214]
2. CCn1cc(-c2[nH]c3ccc(C4CCNCC4)cc3c2C(C)C)cc(C)c1=O [Example 15]

stdout:
[8.10, 8.48]

---

biological target: human TLR9 (Homo sapiens, UniProt Q9NR96); test: TLR9 inhibition reporter assay (HEK-Blue SEAP reporter, ODN2006 stimulation); conditions: HEK-Blue cells overexpressing human TLR9, SEAP reporter, ODN2006 5 nM, 22 hour incubation
Sequence (Q9NR96 26-1032): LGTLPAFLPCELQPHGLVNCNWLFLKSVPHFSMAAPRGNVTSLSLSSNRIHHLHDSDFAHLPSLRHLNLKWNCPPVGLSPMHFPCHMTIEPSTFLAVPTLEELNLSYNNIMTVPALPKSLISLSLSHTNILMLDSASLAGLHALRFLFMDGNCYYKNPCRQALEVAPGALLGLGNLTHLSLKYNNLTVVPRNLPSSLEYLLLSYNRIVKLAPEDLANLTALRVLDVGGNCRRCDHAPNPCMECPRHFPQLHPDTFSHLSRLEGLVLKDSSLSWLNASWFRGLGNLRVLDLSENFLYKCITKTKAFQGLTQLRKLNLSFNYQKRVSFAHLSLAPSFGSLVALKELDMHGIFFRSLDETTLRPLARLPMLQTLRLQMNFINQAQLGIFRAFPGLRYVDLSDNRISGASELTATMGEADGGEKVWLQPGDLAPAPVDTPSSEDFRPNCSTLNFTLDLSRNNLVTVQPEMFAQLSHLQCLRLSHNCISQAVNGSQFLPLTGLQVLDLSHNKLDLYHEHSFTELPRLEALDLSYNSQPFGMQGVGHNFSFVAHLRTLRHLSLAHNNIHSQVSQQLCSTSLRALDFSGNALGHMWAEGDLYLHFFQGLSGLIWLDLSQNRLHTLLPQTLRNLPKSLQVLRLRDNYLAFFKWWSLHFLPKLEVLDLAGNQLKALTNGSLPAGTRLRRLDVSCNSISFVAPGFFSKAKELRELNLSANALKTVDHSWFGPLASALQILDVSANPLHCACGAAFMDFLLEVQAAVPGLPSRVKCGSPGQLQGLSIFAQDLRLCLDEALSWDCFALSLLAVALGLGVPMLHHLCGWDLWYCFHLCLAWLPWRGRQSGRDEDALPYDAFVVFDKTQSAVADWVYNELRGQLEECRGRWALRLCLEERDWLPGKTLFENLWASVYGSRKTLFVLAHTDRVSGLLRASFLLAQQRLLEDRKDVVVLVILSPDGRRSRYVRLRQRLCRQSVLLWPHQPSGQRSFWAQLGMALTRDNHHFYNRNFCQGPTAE
Threshold 3000 nM. IC50 below it: Satisfied. IC50 at it or above: Not satisfied.

COCc1cc(-c2[nH]c3ccc(C4CCN(CC(=O)N(C)C)CC4)cc3c2C(C)C)cn(C)c1=O [Example 351]: Not satisfied
Cc1cc(-c2[nH]c3ccc(C4CCNCC4)cc3c2C(C)C)c(C)n(C)c1=O [Example 3]: Satisfied
CCCN1CCC(c2ccc3[nH]c(-c4cc(-c5ccncc5)c(=O)n(C)c4)c(C(C)C)c3c2)CC1 [Example 336]: Satisfied
Cc1cc(-c2[nH]c3ccc(C4CCN(CC(C)(C)O)CC4)cc3c2C(C)C)cn(CC(C)C)c1=O [Example 328]: Not satisfied
CC(C)c1c(-c2cc(-c3cccc(C#N)c3)c(=O)n(C)c2)[nH]c2ccc(C3CCNCC3)cc12 [Example 56]: Satisfied
CC(C)c1c(-c2cc(CCC3CC3)c(=O)n(C)c2)[nH]c2ccc(C3CCNCC3)cc12 [Example 62]: Not satisfied
CC(C)c1c(-c2cc(N)c(=O)n(C)c2)[nH]c2ccc(C3CCNCC3)cc12 [Example 9]: Satisfied
Cc1cc(-c2[nH]c3ccc(C4CCN(C(=O)C[C@H]5CCCN5)CC4)cc3c2C(C)C)cn(C)c1=O [Example 306]: Satisfied

stdin: Determine if Cc1cc(-c2[nH]c3ccc(C4CCN(C)CC4)cc3c2C(C)C)cn(CC(F)F)c1=O [Example 266] shows IC50 strictly lower than 3000 nM.
stdout: Not satisfied
